Each entry below carries its recorded IC50.
- TARGET: CDK1/CCNB1 (Homo sapiens, UniProt P06493)
- Sequence (P06493 whole entry): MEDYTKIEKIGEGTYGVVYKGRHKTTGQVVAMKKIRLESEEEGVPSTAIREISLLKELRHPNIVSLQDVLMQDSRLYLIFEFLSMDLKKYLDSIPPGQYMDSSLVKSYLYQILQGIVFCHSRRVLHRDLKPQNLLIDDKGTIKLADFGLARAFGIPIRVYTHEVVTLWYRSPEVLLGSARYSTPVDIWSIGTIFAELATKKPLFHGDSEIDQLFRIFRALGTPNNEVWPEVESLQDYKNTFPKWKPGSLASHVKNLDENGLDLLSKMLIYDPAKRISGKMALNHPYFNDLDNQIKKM
- Sequence (P14635 whole entry partner): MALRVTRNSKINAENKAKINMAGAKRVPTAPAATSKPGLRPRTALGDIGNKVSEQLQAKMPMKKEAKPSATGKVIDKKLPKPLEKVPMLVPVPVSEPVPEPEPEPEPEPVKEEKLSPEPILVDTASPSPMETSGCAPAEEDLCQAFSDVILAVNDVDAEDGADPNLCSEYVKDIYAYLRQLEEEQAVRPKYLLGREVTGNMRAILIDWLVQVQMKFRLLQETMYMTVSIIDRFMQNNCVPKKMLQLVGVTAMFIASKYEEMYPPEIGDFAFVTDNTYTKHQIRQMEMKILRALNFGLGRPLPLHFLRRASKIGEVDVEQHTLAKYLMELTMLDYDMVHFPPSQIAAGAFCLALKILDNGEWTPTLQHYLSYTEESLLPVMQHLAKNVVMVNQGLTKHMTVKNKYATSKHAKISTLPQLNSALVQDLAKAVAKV
- RUN DESCRIPTION: CDK1 homogeneous time-resolved fluorescence (HTRF) kinase assay
- Type: biochemical
- REPORTED CONDITIONS: CDK1/CCNB; x = IC50 >250 nM; read-out: CDK1/CCNB IC50 (>250 nM column)

What measured IC50 goes with N#Cc1ccc(C#Cc2nccc3cnc(Nc4ccc(S(=O)(=O)CCN5CCOCC5)cc4)cc23)cc1 ?
> 250 nM

Record: CS(=O)(=O)c1ccc(Nc2cc3c(C#Cc4n[nH]c5c(F)cccc45)nccc3cn2)cc1
> 250 nM

Record: CS(=O)(=O)c1ccc(Nc2cc3c(C#Cc4cnn(CC(F)(F)F)c4)nccc3cn2)cc1
> 250 nM

Record: Cc1c(-c2nccc3cnc(Nc4ccc(S(C)(=O)=O)cc4)cc23)ccc2c1cnn2C(=O)NC(C)(C)C
> 250 nM

Record: CS(=O)(=O)c1ccc(Nc2cc3c(C#Cc4ccc5nc[nH]c5c4)nccc3cn2)cc1
> 250 nM

Record: CS(=O)(=O)c1ccc(Nc2cc3c(C#Cc4nccc5[nH]ccc45)nccc3cn2)cc1
> 250 nM

Record: CS(=O)(=O)c1ccc(Nc2cc3c(C#Cc4ccc(F)c(O)c4)nccc3cn2)cc1
> 250 nM

Record: CS(=O)(=O)c1ccc(Nc2cc3c(C#Cc4cc(F)cc(C#N)c4)nccc3cn2)cc1
> 250 nM

###

- TARGET: CDK4/CCND3 (Homo sapiens)
- RUN DESCRIPTION: CDK4 homogeneous time-resolved fluorescence (HTRF) kinase assay
- Assay type: biochemical
- REPORTED CONDITIONS: CDK4/CCND; x = IC50 25-250 nM; read-out: CDK4/CCND IC50 (25-250 nM)
Each entry below carries its recorded IC50.

Solved entries:
COMPOUND	RESULT
Cc1c(-c2nccc3cnc(Nc4ccc(S(C)(=O)=O)cc4)cc23)ccc2c1ccn2CCO	0.025 to 0.25 µM
CN1CCC(NS(=O)(=O)c2ccc(Nc3cc4c(C#Cc5cccnc5N)nccc4cn3)cc2)CC1	0.025 to 0.25 µM
CCC1(CC)C(=O)Nc2cc(C#Cc3nccc4cnc(Nc5ccc(S(=N)(=O)C6CCC6)cc5)cc34)ccc21 (single isomer, unassigned)	0.025 to 0.25 µM
CC1(CO)C(=O)Nc2cc(C#Cc3nccc4cnc(Nc5ccc(S(C)(=O)=O)cc5)cc34)ccc21 (racemic) [Example 391]	0.025 to 0.25 µM
Cc1c(-c2nccc3cnc(Nc4ccc(S(C)(=O)=O)c(O)c4)cc23)ccc2c1cnn2CCO	0.025 to 0.25 µM

What IC50 appears in the records for this compound with CDK4/CCND3 (Homo sapiens)? CC1(O)C(=O)Nc2cc(C#Cc3nccc4cnc(Nc5ccc(S(C)(=O)=O)cc5)cc34)ccc21 (single isomer, unassigned) [Example 347]
0.025 to 0.25 µM

Record: Cc1c(-c2nccc3cnc(Nc4ccc(S(C)(=O)=O)cc4)cc23)ccc2c1cnn2CC(N)=O
0.025 to 0.25 µM

###

- TARGET: CDK4/CCND3 (Homo sapiens, UniProt P11802)
- Sequence (P11802 whole entry): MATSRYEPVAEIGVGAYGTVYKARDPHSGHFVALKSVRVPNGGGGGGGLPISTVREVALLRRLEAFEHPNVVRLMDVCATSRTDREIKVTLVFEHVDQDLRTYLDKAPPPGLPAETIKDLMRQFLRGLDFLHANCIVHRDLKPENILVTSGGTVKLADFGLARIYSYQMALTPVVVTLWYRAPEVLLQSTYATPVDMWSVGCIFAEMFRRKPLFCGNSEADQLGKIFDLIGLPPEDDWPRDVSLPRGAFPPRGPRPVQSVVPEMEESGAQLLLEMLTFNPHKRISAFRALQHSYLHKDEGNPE
- Sequence (P30281 whole entry partner): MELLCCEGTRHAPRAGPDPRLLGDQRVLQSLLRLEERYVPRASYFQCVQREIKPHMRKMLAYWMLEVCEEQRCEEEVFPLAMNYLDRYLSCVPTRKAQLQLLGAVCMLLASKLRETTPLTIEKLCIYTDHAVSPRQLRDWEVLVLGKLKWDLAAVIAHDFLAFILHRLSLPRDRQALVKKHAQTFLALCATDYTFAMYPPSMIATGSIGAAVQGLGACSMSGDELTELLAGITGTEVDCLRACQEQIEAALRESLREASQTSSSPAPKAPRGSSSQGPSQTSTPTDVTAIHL
- RUN DESCRIPTION: CDK4 homogeneous time-resolved fluorescence (HTRF) kinase assay
- Type: biochemical
- REPORTED CONDITIONS: CDK4/CCND; 25-250 nM marked x; read-out: CDK4/CCND IC50 25-250 nM
pIC50: −log10 of the molar value.
ATTRIBUTE MEASURED: pIC50

COMPOUND	TARGET	ATTRIBUTE MEASURED	RESULT
CS(=O)(=O)c1ccc(Nc2cc3c(C#CC4CC4)nccc3cn2)cc1 [Ex 214]	CDK4/CCND3 (Homo sapiens, UniProt P11802)	pIC50	6.60 to 7.60
CS(=O)(=O)c1ccc(Nc2cc3c(C4=CCC(C#N)CC4)nccc3cn2)cc1 (racemic) [Ex 121]	CDK4/CCND3 (Homo sapiens, UniProt P11802)	pIC50	6.60 to 7.60
CS(=O)(=O)N1CCC(Nc2cc3c(C4=CCOCC4)nccc3cn2)CC1 [Ex 87]	CDK4/CCND3 (Homo sapiens, UniProt P11802)	pIC50	6.60 to 7.60

What measured pIC50 goes with Cc1cc(S(C)(=N)=O)ccc1Nc1cc2c(C#Cc3ccc4c(c3)NC(=O)C43CCC3)nccc2cn1 (single isomer, unassigned) [Ex 333] ?
6.60 to 7.60

Record: CS(=O)(=O)N1CCC(Nc2cc3c(-c4ccc(O)cc4)nccc3cn2)CC1 [Ex 68]
6.60 to 7.60

Record: CN(C)C/C=C/S(=O)(=O)c1ccc(Nc2cc3c(N4CCC(C#N)CC4)nccc3cn2)cc1 [Ex 249]
6.60 to 7.60

Record: CS(=O)(=O)c1ccc(Nc2cc3c(-c4ccc5[nH]ncc5c4Cl)nccc3cn2)cc1 [Ex 183]
6.60 to 7.60

Record: CS(=O)(=O)N1CCC(Nc2cc3c(N4CC(O)C4)nccc3cn2)CC1 [Ex 51]
6.60 to 7.60

Record: C=CS(=O)(=O)N1CCC(Nc2cc3c(-c4cccc(C#N)c4)nccc3cn2)CC1 [Example 24]
6.60 to 7.60

###

Each entry below carries its recorded IC50.
- TARGET: CDK1/CCNB1 (Homo sapiens, UniProt P06493)
- RUN DESCRIPTION: CDK1 homogeneous time-resolved fluorescence (HTRF) kinase assay
- Format: biochemical
- REPORTED CONDITIONS: 25-250 nM; CDK1/CCNB; read-out: CDK1/CCNB IC50, 25-250 nM
- Protocol: A CDK homogeneous time-resolved fluorescence (HTRF) assay was used to assess the potency of the compounds described herein. To an untreated 384-well microtiter plate (ProxiPlate) was added 100 nL 100×test compound in DMSO and 5 μL 2×CDK enzyme in assay buffer (50 mM HEPES, 1 mM EGTA, 10 mM MgCl2, 0.01% Tween 20, 2 mM DTT). […] Fluorescence was read at 340 nm excitation and 665 nm emission on an En Vision 2105 fluorescence reader. […] Using this assay, the IC50 values of example compounds were determined. […]

What measured IC50 goes with Cc1ccc(NS(=O)(=O)c2ccc(Nc3cc4c(-c5ccc6c(cnn6CC(C)(C)O)c5C)nccc4cn3)cc2)nn1 [Ex 800] ?
25 to 250 nM

Record: Cc1c(-c2nccc3cnc(Nc4ccc(NS(=O)(=O)c5cccnc5)cc4)cc23)ccc2c1cnn2CC(C)(C)O [Ex 839]
25 to 250 nM

Record: Cc1c(-c2nccc3cnc(Nc4ccc(NS(=O)(=O)c5cn(C)cn5)cc4)cc23)ccc2c1cnn2CC(C)(C)O [Ex 828]
25 to 250 nM

###

- TARGET: CDK6/CCND1 (Homo sapiens, UniProt Q00534)
- Sequence (Q00534 whole entry): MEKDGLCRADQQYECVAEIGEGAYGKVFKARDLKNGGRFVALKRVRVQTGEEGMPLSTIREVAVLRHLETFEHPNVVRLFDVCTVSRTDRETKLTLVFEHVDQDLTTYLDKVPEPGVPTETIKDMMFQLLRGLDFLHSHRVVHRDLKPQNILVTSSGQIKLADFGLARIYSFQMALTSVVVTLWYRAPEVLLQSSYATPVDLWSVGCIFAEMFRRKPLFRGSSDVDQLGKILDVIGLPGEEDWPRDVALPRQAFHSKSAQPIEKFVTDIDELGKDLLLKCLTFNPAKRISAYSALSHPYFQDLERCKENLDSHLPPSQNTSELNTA
- Sequence (P24385 whole entry partner): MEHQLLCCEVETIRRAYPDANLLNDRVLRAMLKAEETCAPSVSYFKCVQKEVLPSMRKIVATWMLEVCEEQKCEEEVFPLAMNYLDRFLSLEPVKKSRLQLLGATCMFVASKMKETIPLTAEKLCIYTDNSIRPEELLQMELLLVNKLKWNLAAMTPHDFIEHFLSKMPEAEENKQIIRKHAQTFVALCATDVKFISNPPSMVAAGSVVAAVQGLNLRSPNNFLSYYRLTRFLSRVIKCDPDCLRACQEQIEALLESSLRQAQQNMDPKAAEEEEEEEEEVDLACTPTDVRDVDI
- RUN DESCRIPTION: CDK6 homogeneous time-resolved fluorescence (HTRF) kinase assay
- Format: biochemical
- REPORTED CONDITIONS: >250 nM; CDK6/CCND; 1 mM ATP; read-out: CDK6/CCND IC50, >250 nM
ATTRIBUTE MEASURED: IC50

COMPOUND	IC50
Cc1c(-c2nccc3cnc(Nc4ccc(S(=O)(=O)Nc5nccc(F)n5)cc4)cc23)ccc2c1cnn2CC(C)(C)O [Ex 881]	> 250 nM

What IC50 appears in the records for this compound with CDK6/CCND1 (Homo sapiens, UniProt Q00534)? COc1cncc(C#Cc2nccc3cnc(Nc4ccc(S(C)(=O)=O)cc4)cc23)c1 [Ex 882]
> 250 nM

Record: Cc1c(-c2ncc(F)c3cnc(Nc4ccc(S(C)(=O)=O)cc4)cc23)ccc2c1cnn2CC(C)(C)O [Example 788]
> 250 nM

Record: Cc1c(-c2nccc3cnc(Nc4ccc(S(=O)(=O)Nc5nccc(N6CCOCC6)n5)cc4)cc23)ccc2c1cnn2CC(C)(C)O [Ex 893]
> 250 nM

###

Each entry below carries its recorded IC50.
- TARGET: CDK4/CCND3 (Homo sapiens)
- RUN DESCRIPTION: CDK4 homogeneous time-resolved fluorescence (HTRF) kinase assay
- Format: biochemical
- REPORTED CONDITIONS: 1.5 nM CDK4/CCND3, 1 mM ATP; read-out: CDK4/CCND IC50 25-250 nM

COMPOUND	TARGET	RESULT
CS(=O)(=O)c1ccc(Nc2cc3c(C#Cc4ccc5c(c4)CCNC5)c(C#N)ccc3cn2)cc1 [Example 947]	CDK4/CCND3 (Homo sapiens)	25 to 250 nM
Cc1c(-c2nccc3cnc(Nc4ccc(S(C)(=O)=O)cc4)nc23)ccc2c1cnn2CCO [Example 963]	CDK4/CCND3 (Homo sapiens)	25 to 250 nM
Cc1c(-c2c(C#N)ccc3cnc(Nc4ccc(S(C)(=O)=O)cc4)nc23)ccc2c1cnn2CCO [Example 962]	CDK4/CCND3 (Homo sapiens)	25 to 250 nM
CS(=O)(=O)c1ccc(Nc2ncc3ccnc(N4CCC(C#N)CC4)c3n2)cc1 [Example 958]	CDK4/CCND3 (Homo sapiens)	25 to 250 nM
Cc1c(-c2c(C#N)ccc3cnc(Nc4ccc(S(C)(=O)=O)cc4)nc23)ccc2nn(C)cc12 [Example 964]	CDK4/CCND3 (Homo sapiens)	25 to 250 nM

Turning to the following compound.
What measured IC50 goes with CS(=O)(=O)c1ccc(Nc2ncc3ccnc(C4=CCCCC4)c3n2)cc1 [Example 956] ?
25 to 250 nM

Values compiled from patent US20260325533A1.
